# Tested System: T1, HLA-B*07:02 (human)
# T1 construct: Peptide-receptive monomer in the UV-ligand exchange assay
# Experiment Notes: UV peptide exchange, anti-b2m ELISA; exchange yield grade
Reported Endpoint: peptide exchange yield

stdin: Bench note: what peptide exchange yield did LPVHGPLPLLL show?
stdout: 50 to 75%

stdin: Then SPVETRSLL ?
stdout: 50 to 75%

stdin: Queued: SPLPHLGPL
stdout: 50 to 75%

stdin: Also check YPDVPIGQL
stdout: 50 to 75%
